Each item that follows carries a reported EC50.
# procedure.summary: Hydroxyl radical scavenging activity
# test.context: natural purified peptide; Figure 3a; tests repeated three times; read-out: EC50 values of active peptides: OH
# Description: The hydroxyl radical scavenging activity of peptide fractions was determined according to the methods described by Dong et al.. Vitamin C was used as a positive control. The hydroxyl radical activity of active peptides was evaluated by EC50.
No end group written: not given here.

{"input.sequence": "YSQLENEFDR [M-P6, Tyr-Ser-Gln-Leu-Glu-Asn-Glu-Phe-Asp-Arg]", "EC50": "234 µM"}
{"input.sequence": "YIAEDAER [VM-P7, Tyr-Ile-Ala-Glu-Asp-Ala-Glu-Arg]", "EC50": "814 µM"}

====

Parameter: pEC50. Scope: all listed entries.
# tgt: α-glucosidase (from yeast)
# procedure.summary: α-Glucosidase inhibitory activity
# Type: biochemical
# test.context: natural purified peptide; Figure 3a; tests repeated three times; read-out: EC50 values of active peptides: α-glucosidase
pEC50: −log10 of the molar value. No end group written: not given here.

{"input.sequence": "YIAEDAER [VM-P7, Tyr-Ile-Ala-Glu-Asp-Ala-Glu-Arg]", "pEC50": 3.08}
{"input.sequence": "YSQLENEFDR [M-P6, Tyr-Ser-Gln-Leu-Glu-Asn-Glu-Phe-Asp-Arg]", "pEC50": 3.23}

====

# tgt: angiotensin-converting enzyme (from the rabbit lung) (Oryctolagus cuniculus, UniProt P12822)
# Construct: angiotensin-converting enzyme (0.25 U·mL^−1, from the rabbit lung); purchased Sigma-Aldrich (Shanghai, China); host or cells: rabbit lung (tissue-derived)
# Sequence (P12822 34-1310): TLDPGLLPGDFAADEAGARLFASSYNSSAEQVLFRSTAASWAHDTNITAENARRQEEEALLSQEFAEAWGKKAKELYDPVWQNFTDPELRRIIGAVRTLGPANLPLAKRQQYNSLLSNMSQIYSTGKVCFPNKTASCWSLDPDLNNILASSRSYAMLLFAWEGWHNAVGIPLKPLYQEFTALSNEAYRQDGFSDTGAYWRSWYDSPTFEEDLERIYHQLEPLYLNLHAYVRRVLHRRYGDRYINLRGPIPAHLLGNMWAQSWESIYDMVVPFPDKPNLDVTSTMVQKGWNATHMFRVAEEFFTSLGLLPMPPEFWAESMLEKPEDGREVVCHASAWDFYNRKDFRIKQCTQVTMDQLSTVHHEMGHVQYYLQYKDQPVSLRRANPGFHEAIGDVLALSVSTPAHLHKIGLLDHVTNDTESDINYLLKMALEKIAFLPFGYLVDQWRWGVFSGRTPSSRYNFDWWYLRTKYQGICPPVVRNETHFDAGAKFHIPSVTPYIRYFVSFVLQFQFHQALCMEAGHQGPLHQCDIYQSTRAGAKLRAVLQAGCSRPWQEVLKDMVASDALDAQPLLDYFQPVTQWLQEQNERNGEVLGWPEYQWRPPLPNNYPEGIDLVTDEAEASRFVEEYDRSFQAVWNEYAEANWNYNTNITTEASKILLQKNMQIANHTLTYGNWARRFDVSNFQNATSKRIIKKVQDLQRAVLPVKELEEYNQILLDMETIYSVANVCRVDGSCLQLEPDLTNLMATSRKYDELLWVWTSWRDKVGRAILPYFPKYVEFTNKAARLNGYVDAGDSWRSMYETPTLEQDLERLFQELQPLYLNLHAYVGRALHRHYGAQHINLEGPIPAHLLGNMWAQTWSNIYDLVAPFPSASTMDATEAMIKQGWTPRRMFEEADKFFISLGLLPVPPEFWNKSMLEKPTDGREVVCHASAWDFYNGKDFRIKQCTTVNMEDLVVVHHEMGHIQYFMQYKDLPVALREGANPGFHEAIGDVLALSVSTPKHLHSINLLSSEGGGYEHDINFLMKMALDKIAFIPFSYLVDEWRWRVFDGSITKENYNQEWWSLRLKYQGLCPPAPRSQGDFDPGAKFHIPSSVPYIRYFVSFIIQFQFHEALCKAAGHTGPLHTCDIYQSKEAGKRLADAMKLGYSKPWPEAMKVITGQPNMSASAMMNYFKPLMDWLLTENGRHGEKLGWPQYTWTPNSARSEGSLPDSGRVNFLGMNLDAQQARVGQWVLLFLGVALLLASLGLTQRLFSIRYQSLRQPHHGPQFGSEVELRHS
# procedure.summary: ACE-inhibitory activity
# Type: biochemical
# test.context: natural purified peptide; Figure 3a; tests repeated three times; read-out: EC50 values of active peptides: ACE
No end group written: not given here.

{"input.sequence": "YIAEDAER [VM-P7, Tyr-Ile-Ala-Glu-Asp-Ala-Glu-Arg]", "EC50 [µM]": 236}
{"input.sequence": "YSQLENEFDR [M-P6, Tyr-Ser-Gln-Leu-Glu-Asn-Glu-Phe-Asp-Arg]", "EC50 [µM]": 75.6}

====

# tgt: α-amylase (from Bacillus subtilis)
# procedure.summary: α-Amylase inhibitory activity
# Format: biochemical
# test.context: natural purified peptide; Figure 3a; tests repeated three times; read-out: EC50 values of active peptides: α-amylase
No end group written: not given here.
Catalogue of EC50 values

{"input.sequence": "YIAEDAER [VM-P7, Tyr-Ile-Ala-Glu-Asp-Ala-Glu-Arg]", "tgt": "α-amylase (from Bacillus subtilis)", "EC50 / µM": 942}
{"input.sequence": "YSQLENEFDR [M-P6, Tyr-Ser-Gln-Leu-Glu-Asn-Glu-Phe-Asp-Arg]", "tgt": "α-amylase (from Bacillus subtilis)", "EC50 / µM": 692}
